tested on: Rac GTPase-activating protein 1 (Homo sapiens) (UniProt Q9H0H5)
Sequence (Q9H0H5 whole entry, looked up): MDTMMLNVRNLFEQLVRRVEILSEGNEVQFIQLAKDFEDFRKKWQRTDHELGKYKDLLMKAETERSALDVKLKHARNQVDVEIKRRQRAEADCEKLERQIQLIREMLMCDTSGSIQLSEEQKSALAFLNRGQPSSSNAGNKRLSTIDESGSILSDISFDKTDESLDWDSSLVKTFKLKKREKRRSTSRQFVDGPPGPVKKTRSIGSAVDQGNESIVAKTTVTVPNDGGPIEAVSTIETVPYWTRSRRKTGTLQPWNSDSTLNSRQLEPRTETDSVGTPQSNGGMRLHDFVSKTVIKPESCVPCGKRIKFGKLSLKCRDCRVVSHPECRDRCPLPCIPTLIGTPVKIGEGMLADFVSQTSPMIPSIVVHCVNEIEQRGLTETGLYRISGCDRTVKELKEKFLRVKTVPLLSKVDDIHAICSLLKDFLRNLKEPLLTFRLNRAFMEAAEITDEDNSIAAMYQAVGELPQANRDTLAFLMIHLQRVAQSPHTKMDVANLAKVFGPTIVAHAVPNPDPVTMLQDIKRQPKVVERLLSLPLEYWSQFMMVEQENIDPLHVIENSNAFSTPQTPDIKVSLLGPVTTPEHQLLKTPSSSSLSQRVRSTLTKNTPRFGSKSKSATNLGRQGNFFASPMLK
experiment notes: blockers of MgcRacGAP-driven Rac1 GTP hydrolysis – biochemical, ADP Hunter fluorescence, primary and confirmatory, confirmation (AID 624330);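 also: fluorescence reports GDP produced by GAP-driven GTP hydrolysis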
assay conditions: MgcRacGAP-stimulated Rac1 GTP hydrolysis, at 30 µM, hits give high values, GST-tagged Rac1 F28L mutant substrate
Out of some 340,000 compounds screened, about 2,100 (0.62%) were called active. These entries were drawn from the full list. Measured potencies and affinities stand elsewhere.
Response key: class 1 means inhibition >= 10%; class 0 means inhibition < 10%.

// below: answered compounds
CCCCCC(=O)C(=O)c1ccc(O)cc1O :: class 0
CCOC(=O)C1C(=O)NC(C(=O)OCC)(C(=O)OCC)C1C(C)CC (stereo unspecified) :: class 0
N=C(N)c1ccc(N)cc1 :: class 1
S=c1[nH]nc(-c2ccco2)n1/N=C/c1ccccc1Cl :: class 1
Cc1cc(C)n(CC(=O)N2c3ccccc3Sc3ccccc32)n1 :: class 0

Kindly consider the entry below.
Query block: Record `S=c1[nH]nc(-c2ccco2)n1/N=C/c1c(Cl)cccc1Cl` ; criterion: inhibition no lower than 10%. Met?
Result block: class 0
